- system-tested: FGFR1 (UniProt P11362)
- Sequence (P11362 whole entry, looked up): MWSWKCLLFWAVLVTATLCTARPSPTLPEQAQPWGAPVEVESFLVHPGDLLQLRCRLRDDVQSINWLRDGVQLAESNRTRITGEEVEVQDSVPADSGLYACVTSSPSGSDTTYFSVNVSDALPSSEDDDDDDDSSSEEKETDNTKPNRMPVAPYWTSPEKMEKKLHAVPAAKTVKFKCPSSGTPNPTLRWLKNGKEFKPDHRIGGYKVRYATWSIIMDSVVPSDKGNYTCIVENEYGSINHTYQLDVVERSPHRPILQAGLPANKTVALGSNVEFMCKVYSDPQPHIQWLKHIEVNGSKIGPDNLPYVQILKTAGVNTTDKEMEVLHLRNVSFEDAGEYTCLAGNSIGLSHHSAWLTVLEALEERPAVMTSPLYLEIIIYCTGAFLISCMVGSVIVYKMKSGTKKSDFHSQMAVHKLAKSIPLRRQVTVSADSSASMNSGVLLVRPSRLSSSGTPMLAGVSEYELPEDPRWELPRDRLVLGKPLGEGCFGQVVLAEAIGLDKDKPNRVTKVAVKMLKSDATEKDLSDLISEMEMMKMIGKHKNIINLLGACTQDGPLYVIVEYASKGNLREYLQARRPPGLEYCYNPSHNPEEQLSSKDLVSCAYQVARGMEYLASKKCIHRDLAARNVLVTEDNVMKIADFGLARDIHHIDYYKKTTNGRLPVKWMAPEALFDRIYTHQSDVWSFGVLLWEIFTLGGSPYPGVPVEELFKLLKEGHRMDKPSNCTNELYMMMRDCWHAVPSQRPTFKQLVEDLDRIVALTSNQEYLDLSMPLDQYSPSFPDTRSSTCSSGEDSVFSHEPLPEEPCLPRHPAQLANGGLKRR
- procedure-text: phosphorylation enrichment, bacterial display (enrichment ratio); higher = better substrate or ligand; peptides without Tyr show the background;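 note: 11-residue human phosphosite peptides and single-mutation variants displayed on the E. coli surface, counted by deep sequencing, each peptide's frequency after selection divided by its frequency in the unselected input library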;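 note: frequency after pTyr selection over input frequency; kinase dosed for 20-30% of maximal phosphorylation in three min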
Binary classification by phosphorylation enrichment, with 0.6 as an inclusive lower bound for label 1; all other cases are label 0.

Query: Does phosphorylation enrichment meet or surpass 0.6 for YISLIYTNYEA [GSTP1_Y109] ?
Reply: label 1

Query: What do we get for DAVCFYRMENA [NPHS2_Y195_I192V_YF] ?
Reply: label 1

Query: Another sequence to check: SHLSAFPALEG [CD5_Y465_Y465F]
Reply: label 0

Query: Further, for RWHEGYRQTPK [CD44_Y412] ?
Reply: label 0

Query: And what about the sequence CDYKKYGKGLR [ZNF445_Y433_Y428C] ?
Reply: label 0

Query: Then HRERPYGGGGG [FUS_Y526_R521H] ?
Reply: label 0
